Tested on: SK-MEL-28
PROCEDURE_SUMMARY: NCI tumour cell line growth inhibition, 48 h
Active and inactive are the calls of the source. Cut-off read from the data, not from the text of the source: active = GI50 up to about 1.1 µM and inactive = higher.
Outcome (select one): Y (active), N (inactive)

The following compounds have reported results that may help.
CC(=O)O[C@H]1CC2C(C3CCC(C(C)CCC(=O)O)[C@]31C)[C@H](OC(C)=O)C[C@@H]1CC3(CC[C@]21C)OOC1(CC[C@]2(C)C4C[C@H](OC(C)=O)[C@]5(C)C(C(C)CCC(=O)O)CCC5C4[C@H](OC(C)=O)C[C@@H]2C1)OO3 (some centres undefined) :: N
CC(C)(C)c1cc(C#N)c2c(c1)C(=O)OC2(c1ccccc1)c1ccccc1C#N (centres undefined) :: N
CCCCCCNCCCNc1c2cc(OC)ccc2nc2cccc([N+](=O)[O-])c12 :: Y
O=C1OC(c2ccccc2)(c2ccccc2)CC1CN1CCOCC1 (centres undefined) :: N
CC(=O)OC/C=C(/CCl)CCC(Br)C(C)(C)Br.CC(=O)OC/C=C(\CCl)CCC(Br)C(C)(C)Br (centres undefined) :: N

Q. In this assay, the call recorded for CC(C)C(/N=C/c1ccccc1O)C(=O)O (centres undefined) was what?
A. N

Q. In this assay, the call recorded for `Cc1nc(NC(C)(CO)CO)nc(N/N=C/c2ccc(Cl)cc2)c1C(=O)Nc1ccc(Cl)cc1` was what?
A. N

Q. In this assay, the call recorded for `O=C(c1ccc(Cl)cc1)c1ccc(OCCSCCCCCCCCCCSCCOc2ccc(C(=O)c3ccc(Cl)cc3)cc2)cc1` was what?
A. N

Q. In this assay, the call recorded for `O=[N+]([O-])c1cn[n+]([O-])c2ccccc12` was what?
A. N

Q. In this assay, the call recorded for `O=S(=O)(O)c1cc(Nc2ccnc3ccccc23)c2c(S(=O)(=O)O)cc(S(=O)(=O)O)cc2c1` was what?
A. N

Q. In this assay, the call recorded for `Cc1cccc(Cl)c1NC(=O)/C=C/c1ccccc1` was what?
A. N

Q. In this assay, the call recorded for NC(CSC1(c2ccc(Cl)cc2)c2ccccc2-c2ccccc21)C(=O)O (centres undefined) was what?
A. N

Q. In this assay, the call recorded for CC(=O)OCC1OC(n2c(=S)n(-c3ccccc3)c(=O)c3cc(Br)ccc32)C(OC(C)=O)C1OC(C)=O (centres undefined) was what?
A. N

Q. In this assay, the call recorded for `COc1ccc(/C(Cl)=C(\C=N/O)c2ccc(OC)c(OC)c2)cc1OC` was what?
A. N

Q. In this assay, the call recorded for `CCCCCc1c(Cl)nc(Cl)nc1Cl` was what?
A. N

Q. In this assay, the call recorded for O=C1C2=C(c3ccccc31)C(c1ccc(F)cc1)N1C(=O)CCSC1=N2 (centres undefined) was what?
A. N
